- tested-target: human Peroxisome Proliferator-activated Receptor alpha (PPARa), PPARA (gene 5465) (UniProt Q07869)
- Sequence (Q07869 whole entry, looked up): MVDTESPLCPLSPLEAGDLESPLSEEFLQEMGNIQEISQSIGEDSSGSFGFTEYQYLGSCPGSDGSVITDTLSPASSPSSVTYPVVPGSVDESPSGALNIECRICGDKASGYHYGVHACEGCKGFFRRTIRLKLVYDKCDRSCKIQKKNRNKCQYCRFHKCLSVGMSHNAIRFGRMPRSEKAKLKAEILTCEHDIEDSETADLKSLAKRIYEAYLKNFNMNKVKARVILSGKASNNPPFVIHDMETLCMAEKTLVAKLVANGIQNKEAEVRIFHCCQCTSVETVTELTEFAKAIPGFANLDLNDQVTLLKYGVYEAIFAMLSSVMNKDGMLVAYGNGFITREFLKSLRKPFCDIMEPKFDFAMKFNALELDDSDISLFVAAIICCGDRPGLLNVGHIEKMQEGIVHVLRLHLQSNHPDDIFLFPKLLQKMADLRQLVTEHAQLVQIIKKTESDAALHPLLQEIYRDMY
- method-summary: ATG_PPARa_TRANS: Attagene TRANS-FACTORIAL HepG2 Assay for human Peroxisome Proliferator-activated Receptor alpha (PPARa) (AID 2283001);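 as to AC50: potency for gain of reporter signal over DMSO so agonist or activator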
- Experimental: ATG_TRANS is a cell-based, multiplexed-readout assay that uses HepG2, a human liver cell line, with measurements taken at 24 hours after chemical dosing in a 24-well plate.ATG_PPARa_TRANS is one of 30 assay component(s) measured or calculated from the ATG_TRANS assay. […] This assay endpoint, ATG_PPARa_TRANS, was analyzed in the positive analysis fitting direction relative to DMSO as the negative control and baseline of activity. […]
Results filed as inconclusive are left out. The source made the active and inactive calls. The calls were made as follows: active = hit-call score of the fitted dose curve at least 0.9, where 1 is the maximum; inconclusive = response in the unintended direction; inactive = score below 0.9.

[
  {
    "smiles": "NNC(=O)c1ccncc1",
    "AC50": "inactive"
  },
  {
    "smiles": "CCN(CC)C(=S)SSC(=S)N(CC)CC",
    "AC50": "inactive"
  },
  {
    "smiles": "O=S(=O)(O)c1ccc(N=Nc2c(O)ccc3cc(S(=O)(=O)O)ccc23)cc1",
    "AC50": "inactive"
  },
  {
    "smiles": "CCCCN1C(=O)[C@@H]([C@H](O)C2CCCCC2)NC(=O)C12CCN(Cc1ccc(Oc3ccc(C(=O)O)cc3)cc1)CC2",
    "AC50": "inactive"
  },
  {
    "smiles": "CCCCCCCCCCCCCCO",
    "AC50": "inactive"
  },
  {
    "smiles": "CCCCCCCCCCCCCCCCOS(=O)(=O)O",
    "AC50": "9.15 µM (active)"
  }
]

====

- Read-out: Apolipoprotein A-V (APOA5) gene, APOA5 (gene 116519)
- method-summary: LTEA_HepaRG_APOA5: Life Technologies and Expression Analysis (LTEA) Assay for Apolipoprotein A-V (APOA5) gene using HepaRG (AID 2283474)
- reported-conditions: mRNA level, 48 h; actives raise or lower the signal
Active and inactive are the calls of the source. The calls were made as follows: active = hit-call score of the fitted dose curve at least 0.9, where 1 is the maximum; inactive = score below 0.9.
Labels: active, inactive

[
  {
    "molecule": "OCCNCCO",
    "class-name": "inactive"
  },
  {
    "molecule": "OC[C@H]1O[C@@](CO)(O[C@H]2O[C@H](CO)[C@@H](O)[C@H](O)[C@H]2O)[C@@H](O)[C@@H]1O",
    "class-name": "inactive"
  },
  {
    "molecule": "CCCCCCCCCCCCCCCCOS(=O)(=O)O",
    "class-name": "inactive"
  },
  {
    "molecule": "CC(C)C(=O)Nc1ccc([N+](=O)[O-])c(C(F)(F)F)c1",
    "class-name": "active"
  },
  {
    "molecule": "Cc1ccc(S(=O)(=O)NC(=O)NN2CCCCCC2)cc1",
    "class-name": "inactive"
  },
  {
    "molecule": "C=CN1CCCC1=O",
    "class-name": "inactive"
  },
  {
    "molecule": "c1ccc2ncccc2c1",
    "class-name": "inactive"
  },
  {
    "molecule": "Nc1ccn([C@@H]2O[C@H](CO)[C@@H](O)[C@@H]2O)c(=O)n1",
    "class-name": "inactive"
  },
  {
    "molecule": "CC(C)c1nnc2ccc(-c3ocnc3-c3cc(F)ccc3F)cn12",
    "class-name": "active"
  },
  {
    "molecule": "O=C(O)[C@H](O)[C@@H](O)C(=O)O",
    "class-name": "inactive"
  },
  {
    "molecule": "c1ccc2cc3ccccc3cc2c1",
    "class-name": "inactive"
  },
  {
    "molecule": "CCCc1ccccc1",
    "class-name": "inactive"
  },
  {
    "molecule": "C[C@@H](Oc1ccc(CNC(=O)c2cccnc2Oc2ccc3c(c2)OCO3)c(F)c1)C(=O)O",
    "class-name": "inactive"
  },
  {
    "molecule": "CCCCOC(=O)c1ccccc1",
    "class-name": "inactive"
  },
  {
    "molecule": "C=CCc1cc(S(=O)(=O)c2ccc(O)c(CC=C)c2)ccc1O",
    "class-name": "active"
  },
  {
    "molecule": "CCCC(CCC)C(=O)O",
    "class-name": "inactive"
  },
  {
    "molecule": "CCCCCCCC1CCC(=O)O1 (stereo unspecified)",
    "class-name": "inactive"
  },
  {
    "molecule": "O=C1CN(N=Cc2ccc([N+](=O)[O-])o2)C(=O)N1",
    "class-name": "inactive"
  },
  {
    "molecule": "Cc1ncc([C@@H](CCCCCCc2ccc3c(n2)NCCC3)CC(=O)O)cn1",
    "class-name": "inactive"
  },
  {
    "molecule": "CCOc1ccc2[nH]cc(C(=O)NCc3ccccc3)c(=O)c2n1",
    "class-name": "inactive"
  },
  {
    "molecule": "c1ccc(C(O[C@@H]2CCCN(CCc3ccc4c(c3)OCO4)C2)c2ccccc2)cc1",
    "class-name": "inactive"
  },
  {
    "molecule": "Cc1nccn1-c1ccc(Sc2cccc(C3(C(N)=O)CCOCC3)c2)cc1",
    "class-name": "active"
  },
  {
    "molecule": "CCCCCOC(C)=O",
    "class-name": "inactive"
  },
  {
    "molecule": "COc1cc2c(c(OC)c1OC)-c1ccc(OC)c(=O)cc1[C@@H](NC(C)=O)CC2",
    "class-name": "active"
  },
  {
    "molecule": "CC[C@H](C)C(=O)O[C@H]1C[C@H](O)C=C2C=C[C@H](C)[C@H](CC[C@@H](O)C[C@@H](O)CC(=O)O)[C@H]21",
    "class-name": "inactive"
  },
  {
    "molecule": "OCCOCCOCCO",
    "class-name": "inactive"
  }
]

====

- Read-out: Urokinase-type plasminogen activator receptor (uPAR), PLAUR (gene 5329)
- method-summary: BSK_CASM3C_uPAR: BioMAP Diversity Plus: CASM3C Assay for Urokinase-type plasminogen activator receptor (uPAR) Biomarker Activity (AID 2283054);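 also: cell-surface uPAR protein level quantified by ELISA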
- reported-conditions: primary human coronary artery smooth muscle cells; actives raise or lower the signal
The source made the active and inactive calls. How the source made its calls: active means hit-call score of the fitted dose curve at least 0.9, where 1 is the maximum; inactive means score below 0.9.
Labels: active, inactive

[
  {
    "compound": "OCc1c[nH]c2ccccc12",
    "class-name": "inactive"
  },
  {
    "compound": "C[Si](C)(C)C(F)(F)C(F)(F)C(F)(F)F",
    "class-name": "inactive"
  },
  {
    "compound": "CCn1nc(C)c2c1C(=O)NCC(c1ccc(O)cc1)=N2",
    "class-name": "active"
  },
  {
    "compound": "CC(C)CCCCCCOC(=O)C1CCCCC1C(=O)OCCCCCCC(C)C (configuration not stated)",
    "class-name": "inactive"
  },
  {
    "compound": "O=S(=O)(O)CCC(F)(F)C(F)(F)C(F)(F)C(F)(F)C(F)(F)C(F)(F)F",
    "class-name": "inactive"
  },
  {
    "compound": "CCOc1ccc2[nH]cc(C(=O)NCc3ccccc3)c(=O)c2n1",
    "class-name": "inactive"
  },
  {
    "compound": "O=C1CN(N=Cc2ccc([N+](=O)[O-])o2)C(=O)N1",
    "class-name": "inactive"
  },
  {
    "compound": "OCCNCCO",
    "class-name": "inactive"
  },
  {
    "compound": "O=C(O)c1cccc(C[C@@H]2COc3ccc(OCc4nc5cc(F)ccc5s4)cc3[C@@H]2O)c1",
    "class-name": "inactive"
  },
  {
    "compound": "FC(F)(F)C(F)(F)C(F)(F)C(F)(F)C(F)(F)C(F)(F)I",
    "class-name": "inactive"
  },
  {
    "compound": "Nc1ccn([C@@H]2O[C@H](CO)[C@@H](O)[C@@H]2O)c(=O)n1",
    "class-name": "inactive"
  },
  {
    "compound": "NNC(=O)c1ccncc1",
    "class-name": "inactive"
  }
]

====

- Read-out: Interferon-gamma inducible Protein 10 (IP10), CXCL10 (gene 3627)
- method-summary: BSK_KF3CT_IP10: BioMAP Diversity Plus: KF3CT Assay for Interferon-gamma inducible Protein 10 (IP10) Biomarker Activity (AID 2283068)
- reported-conditions: primary human keratinocytes with fibroblasts; actives raise or lower the signal
Activity calls are given as the source filed them. How the source made its calls: active means hit-call score of the fitted dose curve at least 0.9, where 1 is the maximum; inactive means score below 0.9.
Labels: class 1 for active, class 0 for inactive

[
  {
    "molecule": "CCCC(CCC)C(=O)O",
    "class-name": "class 0"
  },
  {
    "molecule": "O=S(=O)(O)CCC(F)(F)C(F)(F)C(F)(F)C(F)(F)C(F)(F)C(F)(F)F",
    "class-name": "class 0"
  },
  {
    "molecule": "C[C@@H](Oc1ccc(CNC(=O)c2cccnc2Oc2ccc3c(c2)OCO3)c(F)c1)C(=O)O",
    "class-name": "class 0"
  },
  {
    "molecule": "OC(Cn1cncn1)(Cn1cncn1)c1ccc(F)cc1F",
    "class-name": "class 0"
  },
  {
    "molecule": "NNC(=O)c1ccncc1",
    "class-name": "class 0"
  },
  {
    "molecule": "CCCCCCCCCCCCCCCCOS(=O)(=O)O",
    "class-name": "class 1"
  },
  {
    "molecule": "O=C(NO)C1(NS(=O)(=O)c2ccc(Oc3ccc(F)cc3)cc2)CCOCC1",
    "class-name": "class 0"
  },
  {
    "molecule": "CCc1ccc(O)c(C(C)(C)C)c1",
    "class-name": "class 1"
  },
  {
    "molecule": "CC(C)CCCCCCOC(=O)C1CCCCC1C(=O)OCCCCCCC(C)C (configuration not stated)",
    "class-name": "class 0"
  },
  {
    "molecule": "O=c1[nH]cnc2c1ncn2[C@H]1CC[C@@H](CO)O1",
    "class-name": "class 0"
  },
  {
    "molecule": "C=CN1CCCC1=O",
    "class-name": "class 0"
  },
  {
    "molecule": "CC(C)c1nnc2ccc(-c3ocnc3-c3cc(F)ccc3F)cn12",
    "class-name": "class 0"
  }
]
